tested on: MS2 coat protein; experiment: apparent KD of MS2 coat protein; designed switch direction (-1 OFF switch, 1 ON switch): 1; higher = weaker reporter binding; settings: input ligand: microRNA oligo, concentration not stated
Quick reference for apparent KD of MS2 coat protein among some sequences
Record the value in nM, omitting the unit from your answer.

| Sequence string | Endpoint unit | apparent KD of MS2 coat protein |
| --- | --- | --- |
| GGUGGGUUACUACCAACACAUGAGGAUCACCCAUGUUUUGGGAAGGAUAUGGUACCUAUUUGGUACCAGAAGGUCCAGUUAGUG [salish99_SSNG3_r04_703] (Eterna round: R96, puzzle: Same State NG 3) | nM | 37.7 |

Give recorded apparent KD of MS2 coat protein with MS2 coat protein for the following sequence: UAGGAACAUGAGGAUCACCCAUGUACCUCAUAUGGAGAAACACAGGAUAUGCUCAGCGAAAGAGAGCAGAAGGGUGAAGAGAGG [Default title] (Eterna round: R96, puzzle: Same State NG 3)
27.6

Which measured apparent KD of MS2 coat protein belongs to CCGGACAUGAGGAUCACCCAUGUCGACGGAUACCCUUGGGCAUAGGAUAUCUGGAAUUAAAAGAAAGAGAAGGGUGAUCCAAGG [Qusoinrege] (Eterna round: R96, puzzle: Same State NG 3) , tested on MS2 coat protein?
40.8
